assay: CCTE_Deisenroth_AIME_384WELL_CTox_Active: Cytotoxicity Assessment (CTOX) in CCTE's 384-well Estrogen Receptor Transactivation Assay with AIME metabolic competence (metabolism positive), Deisenroth Lab (AID 2284037);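 also: chemicals first conditioned 2 h by alginate-bound induced rat liver S9 before cells; activity means signal loss indicating cell death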
Inconclusive results are not listed. Calls of active or inactive are those of the source. The calls were made as follows: active = hit-call score of the fitted dose curve at least 0.9, where 1 is the maximum; inconclusive = response in the unintended direction; inactive = score below 0.9.
quantity.name: AC50

Below are worked cases with known answers.
>>> df
                                   molecule  quantity_name      assay_value
0  C[C@@H]1C[C@H]2[C@@H]3CCC4=CC(=O)C=C[C@]4(C)[C@@]3(F)[C@@H](O)C[C@]2(C)[C@@]1(O)C(=O)COP(=O)(O)O           AC50         inactive
1         COCC(C)OCC(C)O (stereo not drawn)           AC50         inactive
2             ClC1=C(Cl)C(Cl)(Cl)C(Cl)=C1Cl           AC50         inactive
3                            CCCCCCCCC(=O)O           AC50         inactive
4  CCN(CC)CCNc1ccc(CNC=O)c2sc3ccc(OC)cc3c(=O)c12           AC50  130 µM (active)
5                 COc1ccc([N+](=O)[O-])cc1N           AC50  100 µM (active)
6                      CN1CCC[C@H]1c1cccnc1           AC50         inactive

Attention now shifts to the item below.
Ask: AC50 for "CCCCCCCCCCCCN1CCCC1=O" ?
Reply: 100 µM (active)

* * *

read-out: Plasminogen activator inhibitor-1 (PAI1), SERPINE1 (gene 5054); assay: BSK_KF3CT_PAI1: BioMAP Diversity Plus: KF3CT Assay for Plasminogen activator inhibitor-1 (PAI1) Biomarker Activity (AID 2284252); details: primary human keratinocytes with fibroblasts
Active and inactive are the calls of the source. How the source made its calls: active means hit-call score of the fitted dose curve at least 0.9, where 1 is the maximum; inactive means score below 0.9.
Choose one outcome from this list and give only that: active, inactive

Ask: Status in this test for "C=C(C)C(=O)OCCC(F)(F)C(F)(F)C(F)(F)C(F)(F)C(F)(F)C(F)(F)F" ?
Reply: inactive

Ask: Status in this test for "C[C@@H]1C[C@H]2[C@@H]3CCC4=CC(=O)C=C[C@]4(C)[C@@]3(F)[C@@H](O)C[C@]2(C)[C@@]1(O)C(=O)COP(=O)(O)O" ?
Reply: inactive

Ask: Status in this test for "OCCC(F)(F)C(F)(F)C(F)(F)C(F)(F)C(F)(F)C(F)(F)F" ?
Reply: inactive

Ask: Status in this test for "FC(F)(I)C(F)(F)C(F)(F)C(F)(F)C(F)(F)C(F)(F)I" ?
Reply: active

* * *

read-out: Cytochrome P450 3A7 (Homo sapiens); test: LTEA_HepaRG_CYP3A7: Life Technologies and Expression Analysis (LTEA) Assay for CYP3A7 using HepaRG (AID 2283492); settings: mRNA level, 48 h; actives raise or lower the signal
Activity calls are given as the source filed them. The calls were made as follows: active = hit-call score of the fitted dose curve at least 0.9, where 1 is the maximum; inactive = score below 0.9.
Choose one outcome from this list and give only that: active, inactive

Ask: Status in this test for N#C[C@@H]1CC(F)(F)CN1C(=O)CNC1CC2CCC(C1)N2c1ncccn1 (stereo not given in full) ?
Reply: inactive

Ask: Status in this test for "CCC(=C(c1ccc(O)cc1)c1ccc(OCCN(C)C)cc1)c1ccccc1" ?
Reply: active

Ask: Status in this test for "O=C(OCCOCCOC(=O)c1ccccc1)c1ccccc1" ?
Reply: inactive

Ask: Status in this test for NC(=O)N1C(=O)C(C(=O)c2cc(Cl)cs2)c2cc(F)c(Cl)cc21 (stereo not given) ?
Reply: active

Ask: Status in this test for "OC1CCCCC1" ?
Reply: inactive

Ask: Status in this test for "O=c1c(-c2ccc(O)cc2)coc2cc(O)ccc12" ?
Reply: inactive

Ask: Status in this test for "CCCCCCCC(=O)O" ?
Reply: inactive

Ask: Status in this test for "Cc1cc(C)c(O)c(C)c1" ?
Reply: active

Ask: Status in this test for CCc1nn(C2CCCCC2)c2cc(C3(C#N)CCC(C(=O)O)CC3)ccc12 (stereo not given) ?
Reply: active

Ask: Status in this test for "COC(=O)CCCCC(=O)OC" ?
Reply: inactive
